- System: NCI-H2347
- protocol: relative viability (nuclei count vs DMSO), 5 days (fraction); higher = more cells survive
- experimental_setup: first compound 8 µM
property_label: relative viability

Reference set (3 entries):
Q. Request body: readout relative viability, system NCI-H2347, query C=C1C(=O)O[C@@H](CCCCCCCC)[C@@H]1C(=O)O [C-75] + Nc1ncn([C@H]2C[C@H](O)[C@@H](CO)O2)c(=O)n1 [Decitabine] (partner 2 µM) . Return the value.
A. 0.659

Q. Also, C=C1C(=O)O[C@@H](CCCCCCCC)[C@@H]1C(=O)O [C-75] + Cc1nc(NC(=O)N2CCC[C@H]2C(N)=O)sc1-c1ccnc(C(C)(C)C(F)(F)F)c1 [Alpelisib] (partner 2 µM) please.
A. 1.09

Q. Entry to check: C=C1C(=O)O[C@@H](CCCCCCCC)[C@@H]1C(=O)O [C-75] + Cc1cc(Nc2cc(N3CCN(C)CC3)nc(Sc3ccc(NC(=O)C4CC4)cc3)n2)n[nH]1 [Tozasertib] (partner 0.1 µM)
A. 0.534

Further cases:
Q. Entry C=C1C(=O)O[C@@H](CCCCCCCC)[C@@H]1C(=O)O [C-75] + CCNC(=O)c1noc(-c2cc(C(C)C)c(O)cc2O)c1-c1ccc(CN2CCOCC2)cc1 [Luminespib] (partner 0.01 µM) , system NCI-H2347: what relative viability was measured?
A. 0.446

Q. Request: C=C1C(=O)O[C@@H](CCCCCCCC)[C@@H]1C(=O)O [C-75] + CS(=O)(=O)N1CCN(Cc2cc3nc(-c4cccc5[nH]ncc45)nc(N4CCOCC4)c3s2)CC1 [Pictilisib] (partner 1 µM)
A. 0.649

###

- System: NCI-H2023
- protocol: relative viability (nuclei count vs DMSO), 5 days (fraction); higher = more cells survive
- experimental_setup: first compound 0.1265 µM
property_label: relative viability
Please give the numeric answer without any surrounding text.

Q. Need relative viability of O=C(O)c1ccc(-c2c[nH]c3ncc(-c4ccccc4)cc23)cc1C1CCCC1 + O=C(CCCCCCC(=O)Nc1ccccc1)NO [Vorinostat] (partner 1 µM) , thanks.
A. 0.967

Q. Again, but for O=C(O)c1ccc(-c2c[nH]c3ncc(-c4ccccc4)cc23)cc1C1CCCC1 + Nc1nc2[nH]cc(CCc3ccc(C(=O)N[C@@H](CCC(=O)O)C(=O)O)cc3)c2c(=O)[nH]1 [Pemetrexed] (partner 0.2 µM)
A. 0.271

Q. Likewise for O=C(O)c1ccc(-c2c[nH]c3ncc(-c4ccccc4)cc23)cc1C1CCCC1 + C[C@@H](Oc1cc(-c2cnn(C3CCNCC3)c2)cnc1N)c1c(Cl)ccc(F)c1Cl [Crizotinib] (partner 1 µM) ?
A. 0.669

Q. Okay, and O=C(O)c1ccc(-c2c[nH]c3ncc(-c4ccccc4)cc23)cc1C1CCCC1 + CS(=O)(=O)CCNCc1ccc(-c2ccc3ncnc(Nc4ccc(OCc5cccc(F)c5)c(Cl)c4)c3c2)o1 [Lapatinib] (partner 2 µM) ?
A. 0.938

Q. // same read-out, input: O=C(O)c1ccc(-c2c[nH]c3ncc(-c4ccccc4)cc23)cc1C1CCCC1 + CC(C)C[C@H](NC(=O)[C@H](Cc1ccccc1)NC(=O)c1cnccn1)B(O)O [Bortezomib] (partner 0.002 µM)
A. 1.08

Kindly consider the entry below.
Q. Form field: reported relative viability of O=C(O)c1ccc(-c2c[nH]c3ncc(-c4ccccc4)cc23)cc1C1CCCC1 + CC(=O)Nc1cccc(-n2c(=O)n(C3CC3)c(=O)c3c(Nc4ccc(I)cc4F)n(C)c(=O)c(C)c32)c1 [Trametinib] (partner 0.02 µM)
A. 0.55

###

relative viability by entry:
- System: NCI-H1793
- protocol: relative viability (nuclei count vs DMSO), 5 days (fraction); higher = more cells survive
- experimental_setup: first compound 0.01 µM

Past entries and their recorded results:
Q. Recorded relative viability of NC(=O)Nc1cc(-c2cccc(F)c2)sc1C(=O)N[C@H]1CCCNC1 [AZD7762] + CC(=O)c1c(C)c2cnc(Nc3ccc(N4CCNCC4)cn3)nc2n(C2CCCC2)c1=O [Palbociclib] (partner 0.5 µM) , please.
A. 0.34

Q. Follow-up entry: NC(=O)Nc1cc(-c2cccc(F)c2)sc1C(=O)N[C@H]1CCCNC1 [AZD7762] + CC(=O)Nc1cccc(-n2c(=O)n(C3CC3)c(=O)c3c(Nc4ccc(I)cc4F)n(C)c(=O)c(C)c32)c1 [Trametinib] (partner 0.02 µM)
A. 0.469

Q. For NC(=O)Nc1cc(-c2cccc(F)c2)sc1C(=O)N[C@H]1CCCNC1 [AZD7762] + CS(=O)(=O)CCNCc1ccc(-c2ccc3ncnc(Nc4ccc(OCc5cccc(F)c5)c(Cl)c4)c3c2)o1 [Lapatinib] (partner 2 µM) then?
A. 1.08

Others:
Q. Data request, read-out relative viability, for NC(=O)Nc1cc(-c2cccc(F)c2)sc1C(=O)N[C@H]1CCCNC1 [AZD7762] + COc1cccc2cc(-c3nc([C@H]4CC[C@H](C(=O)O)CC4)n4ncnc(N)c34)[nH]c12 [OSI-027] (partner 0.5 µM)
A. 0.265

Q. How about NC(=O)Nc1cc(-c2cccc(F)c2)sc1C(=O)N[C@H]1CCCNC1 [AZD7762] + O=C(c1cc(Cc2n[nH]c(=O)c3ccccc23)ccc1F)N1CCN(C(=O)C2CC2)CC1 [Olaparib] (partner 8 µM) ?
A. 0.886

###

- Test system: NCI-H460
- protocol: relative viability (nuclei count vs DMSO), 5 days (fraction); higher = more cells survive
- experimental_setup: first compound 0.8 µM
Mark each entry Satisfied if its relative viability sits below 0.4, and Not satisfied for all others.

Q. Quick check: relative viability of C=C1C(=O)O[C@@H](CCCCCCCC)[C@@H]1C(=O)O [C-75] + C[C@@H](Oc1cc(-c2cnn(C3CCNCC3)c2)cnc1N)c1c(Cl)ccc(F)c1Cl [Crizotinib] (partner 1 µM) under 0.4?
A. Not satisfied

---
Q. Find out if reported relative viability for C=C1C(=O)O[C@@H](CCCCCCCC)[C@@H]1C(=O)O [C-75] + CC(=O)Nc1cccc(-n2c(=O)n(C3CC3)c(=O)c3c(Nc4ccc(I)cc4F)n(C)c(=O)c(C)c32)c1 [Trametinib] (partner 0.02 µM) is less than 0.4
A. Satisfied

Q. Then C=C1C(=O)O[C@@H](CCCCCCCC)[C@@H]1C(=O)O [C-75] + O=C(CCCCCCC(=O)Nc1ccccc1)NO [Vorinostat] (partner 1 µM) ?
A. Not satisfied

Q. Follow-up item: Oc1nc(-c2ccc(C(F)(F)F)cc2)nc2c1CSCC2 [XAV939] + Cc1nc(NC(=O)N2CCC[C@H]2C(N)=O)sc1-c1ccnc(C(C)(C)C(F)(F)F)c1 [Alpelisib] (partner 2 µM)
A. Not satisfied

###

- Tested on: NCI-H2087
- protocol: relative viability (nuclei count vs DMSO), 5 days (fraction); higher = more cells survive
- experimental_setup: first compound 0.5 µM
property_label: relative viability
// return a plain number; no unit text

Example cases with answers are listed next.
Q. Lookup: relative viability / NCI-H2087 / CC1(C)CCC(c2ccc(Cl)cc2)=C(CN2CCN(c3ccc(C(=O)NS(=O)(=O)c4ccc(N[C@H](CCN5CCOCC5)CSc5ccccc5)c(S(=O)(=O)C(F)(F)F)c4)cc3)CC2)C1 [Navitoclax] + Nc1ncn([C@H]2C[C@H](O)[C@@H](CO)O2)c(=O)n1 [Decitabine] (partner 2 µM)
A. 0.266

Q. Repeat for the following molecule: CC1(C)CCC(c2ccc(Cl)cc2)=C(CN2CCN(c3ccc(C(=O)NS(=O)(=O)c4ccc(N[C@H](CCN5CCOCC5)CSc5ccccc5)c(S(=O)(=O)C(F)(F)F)c4)cc3)CC2)C1 [Navitoclax] + CC(C)C[C@H](NC(=O)[C@H](Cc1ccccc1)NC(=O)c1cnccn1)B(O)O [Bortezomib] (partner 0.002 µM)
A. 0.772

// moving on: another record for relative viability
Q. What is its relative viability for NCI-H2087? Entry: CC1(C)CCC(c2ccc(Cl)cc2)=C(CN2CCN(c3ccc(C(=O)NS(=O)(=O)c4ccc(N[C@H](CCN5CCOCC5)CSc5ccccc5)c(S(=O)(=O)C(F)(F)F)c4)cc3)CC2)C1 [Navitoclax] + C[C@@H](Oc1cc(-c2cnn(C3CCNCC3)c2)cnc1N)c1c(Cl)ccc(F)c1Cl [Crizotinib] (partner 1 µM)
A. 0.976

###

// relative viability lookup, one value per entry
- Tested on: EMC-BAC-2
- protocol: relative viability (nuclei count vs DMSO), 5 days (fraction); higher = more cells survive
- experimental_setup: first compound 0.1 µM

Q. For the molecule shown here, NC(=O)Nc1cc(-c2cccc(F)c2)sc1C(=O)N[C@H]1CCCNC1 [AZD7762] + CC(=O)Nc1cccc(-n2c(=O)n(C3CC3)c(=O)c3c(Nc4ccc(I)cc4F)n(C)c(=O)c(C)c32)c1 [Trametinib] (partner 0.02 µM) , give the reported relative viability.
A. 0.921

Q. What about this molecule? NC(=O)Nc1cc(-c2cccc(F)c2)sc1C(=O)N[C@H]1CCCNC1 [AZD7762] + CC(C)C[C@H](NC(=O)[C@H](Cc1ccccc1)NC(=O)c1cnccn1)B(O)O [Bortezomib] (partner 0.002 µM)
A. 1.09

Alright, here's another molecule for you.
Q. For the molecule NC(=O)Nc1cc(-c2cccc(F)c2)sc1C(=O)N[C@H]1CCCNC1 [AZD7762] + Nc1ncn([C@H]2C[C@H](O)[C@@H](CO)O2)c(=O)n1 [Decitabine] (partner 2 µM) , what relative viability is on record?
A. 1.09
